Test system: P. falciparum 3D7 in RBCs, SYBR Green DNA fluorescence
protocol summary: growth inhibition of P. falciparum 3D7, dose response, 3D7 strain, red blood cells, SYBR Green, cherry-picked (AID 652047)
Answer each item with its documented AC35.

Use the examples below as a reference point.
compound=O=C(Nc1nnc(-c2cccs2)o1)c1cccc(Oc2ccccc2)c1 result="23 µM"
compound=CC(=O)Nc1cccc(NC(=O)CSc2ccc(-c3ccccn3)nn2)c1 result="14 µM"
compound=Cc1oc2c(c1C(=O)c1ccccc1)C(=O)C(=O)c1ccccc1-2 result="3.23 µM"
compound=C=C(C)COc1ccc(-c2[nH]ncc2-c2ccccc2)c(O)c1 result="2.91 µM"
compound=O=C(Nc1nnc(-c2ccccc2)o1)c1ccc(Cl)cc1 result="12.4 µM"

Dear colleague, could you please provide AC35 for the compounds listed below?
1. S=C(Nc1ccc(Oc2ccccc2)cc1)NC1CCCCCC1
2. Cc1ccc(O)c(C2=NNC(c3ccc(Cl)cc3)C2)c1 (configuration not stated)

## Output
1. 12.7 µM
2. 4.31 µM
